assay: Ratio of drug level in brain to plasma of diet-induced obese C57BL/6J mouse model at 10 mg/kg, po administered as daily dose measured at 2 hrs post last dose on day 23; type: ADME, organism-based; conditions: read-out: BPR
Readout label: Kp at 2 h
Enter the number alone.

**Query** Identify measured Kp at 2 h associated with O=c1cc(NC2CCN(S(=O)(=O)C(F)(F)F)CC2)c2cc(C(c3ccc(Cl)cc3)c3ccc(Cl)cc3)ccc2[nH]1
**Result** 0.038

---

assay: Metabolic stability in human liver microsomes assessed as parent compound remaining at 1 uM after 10 mins in presence of NADPH; format: ADME, microsome; details: read-out: Stability
I'd appreciate it if you could supply remaining at 10 min, 1 µM values for the items below.
The answer is to be given in %; state only the numeric part.

**Query** Write down remaining at 10 min, 1 µM measured for item O=c1cc(NC2CCN(S(=O)(=O)C(F)(F)F)CC2)c2cc(C(c3ccc(Cl)cc3)c3nccs3)ccc2[nH]1 (centres undefined)
**Result** 62.2

**Query** Give remaining at 10 min, 1 µM for the following compound: O=c1cc(N[C@@H]2CCN(S(=O)(=O)C(F)(F)F)C2)c2cc(C(c3ccc(Cl)cc3)c3nccs3)ccc2[nH]1 (some centres undefined)
**Result** 20.4

**Query** Kindly indicate its recorded remaining at 10 min, 1 µM. Item: O=c1cc(NC2CCN(S(=O)(=O)C(F)(F)F)CC2)c2cc(C(c3ccc(Cl)cc3)c3ccc(Cl)cc3)ccc2[nH]1
**Result** 100

**Query** For the compound O=c1cc(NC2CCN(c3ncccn3)CC2)c2cc(C(c3ccc(Cl)cc3)c3ccc(Cl)cc3)ccc2[nH]1 , report remaining at 10 min, 1 µM.
**Result** 43

---

assay: Ratio of drug level in brain to plasma of diet-induced obese C57BL/6J mouse model at 10 mg/kg, po administered as daily dose measured at 2 hrs post last dose on day 1; format: ADME, organism-based; conditions: read-out: BPR
Readout label: Kp at 2 h
Simply state the number, no unit and no words.

**Query** Answer with the recorded Kp at 2 h of O=c1cc(NC2CCN(S(=O)(=O)C(F)(F)F)CC2)c2cc(C(c3ccc(Cl)cc3)c3ccc(Cl)cc3)ccc2[nH]1 only.
**Result** 0.026

---

assay: Drug uptake in plasma of diet-induced obese C57BL/6J mouse model at 1 mg/kg, po administered as daily dose measured at 2 hrs post last dose on day 22; format: ADME, organism-based
Readout label: concentration at 2 h (nM)
Respond numerically; units are nM and should not be typed.

**Query** # return recorded concentration at 2 h for input O=c1cc(NC2CCN(S(=O)(=O)C(F)(F)F)CC2)c2cc(C(c3ccc(Cl)cc3)c3ccc(Cl)cc3)ccc2[nH]1
**Result** 843

---

experiment: Ratio of drug level in brain to plasma of MDR1a knockout CF-1 mouse at 20 mg/kg, po; format: ADME, organism-based; settings: read-out: BPR
Readout label: Kp
// keep it numeric: no unit symbol after the value

**Query** Could you please provide reported Kp for O=c1cc(NC2CCN(S(=O)(=O)C(F)(F)F)CC2)c2cc(C(c3ccc(Cl)cc3)c3ccc(Cl)cc3)ccc2[nH]1 ? Thanks!
**Result** 0.72

---

assay: Drug uptake in plasma of diet-induced obese C57BL/6J mouse model at 10 mg/kg, po administered as daily dose measured at 2 hrs post last dose on day 22; assay type: ADME, organism-based
Readout label: concentration at 2 h (µM)
The reply should contain only the number, in µM.

**Query** Please indicate concentration at 2 h recorded for O=c1cc(NC2CCN(S(=O)(=O)C(F)(F)F)CC2)c2cc(C(c3ccc(Cl)cc3)c3ccc(Cl)cc3)ccc2[nH]1
**Result** 8.65

---

experiment: Drug uptake in C57BL/6J mouse plasma at 20 mg/kg, po measured after 1 hr; type: ADME, organism-based
Readout label: concentration at 1 h (nM)
Enter your answer as a number in nM; do not include the unit.

**Query** Dear colleague, please send me the reported concentration at 1 h for O=c1cc(NC2CCN(S(=O)(=O)C(F)(F)F)CC2)c2cc(C(c3ccc(Cl)cc3)c3ccc(Cl)cc3)ccc2[nH]1 when you can.
**Result** 1720

**Query** Specify concentration at 1 h for O=c1cc(NC2CCN(c3ncccn3)CC2)c2cc(C(c3ccc(Cl)cc3)c3ccc(Cl)cc3)ccc2[nH]1 and stop.
**Result** 4160

---

assay: Ratio of drug level in brain to plasma of diet-induced obese C57BL/6J mouse model at 3 mg/kg, po administered as daily dose measured at 2 hrs post last dose on day 23; assay type: ADME, organism-based; conditions: read-out: BPR
Readout label: Kp at 2 h
Write no unit; give the number alone.

**Query** Tell me its Kp at 2 h given O=c1cc(NC2CCN(S(=O)(=O)C(F)(F)F)CC2)c2cc(C(c3ccc(Cl)cc3)c3ccc(Cl)cc3)ccc2[nH]1 as the entry.
**Result** 0.065

---

assay: Drug uptake in plasma of diet-induced obese C57BL/6J mouse model at 10 mg/kg, po administered as daily dose measured at 2 hrs post last dose on day 1; format: ADME, organism-based
Readout label: concentration at 2 h
Kindly format the answer as number then unit.

**Query** Entry O=c1cc(NC2CCN(S(=O)(=O)C(F)(F)F)CC2)c2cc(C(c3ccc(Cl)cc3)c3ccc(Cl)cc3)ccc2[nH]1 needs its concentration at 2 h filled in; supply it.
**Result** 4.08 µM

---

Readout label: IC50

**Query** GET IC50 | system: Cytochrome P450 2C9 (Homo sapiens, UniProt P11712) | item: O=c1cc(NC2CCN(S(=O)(=O)C(F)(F)F)CC2)c2cc(C(c3ccc(Cl)cc3)c3nccs3)ccc2[nH]1 (configuration not stated)
**Result** > 10 µM

**Query** Print Cytochrome P450 2C9 (Homo sapiens, UniProt P11712) IC50 for O=c1cc(NC2CCN(S(=O)(=O)C(F)(F)F)CC2)c2cc(C(c3ccc(Cl)cc3)c3ccc(Cl)cc3)ccc2[nH]1 .
**Result** > 10 µM

---

target: Cannabinoid receptor 2 (Homo sapiens, UniProt P34972); experiment: Inverse agonist activity at human CB2 receptor expressed in HEK293 cells assessed as […] cAMP accumulation after 30 mins by HTRF assay
Sequence (P34972 whole entry): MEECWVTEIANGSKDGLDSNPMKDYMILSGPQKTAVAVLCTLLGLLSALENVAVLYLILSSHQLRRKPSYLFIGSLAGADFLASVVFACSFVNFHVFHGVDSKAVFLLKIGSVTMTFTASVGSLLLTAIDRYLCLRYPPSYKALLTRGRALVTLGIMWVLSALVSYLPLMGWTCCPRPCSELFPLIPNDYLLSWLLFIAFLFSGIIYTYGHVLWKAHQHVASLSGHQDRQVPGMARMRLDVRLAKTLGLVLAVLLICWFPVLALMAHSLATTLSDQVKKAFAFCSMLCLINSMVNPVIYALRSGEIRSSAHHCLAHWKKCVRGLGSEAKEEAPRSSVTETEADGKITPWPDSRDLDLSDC
Provide the recorded EC50 for the entries that follow.

**Query** Please look at O=c1cc(NC2CCN(S(=O)(=O)C(F)(F)F)CC2)c2cc(C(c3ccc(Cl)cc3)c3ccc(Cl)cc3)ccc2[nH]1 and tell me its recorded EC50 on Cannabinoid receptor 2 (Homo sapiens, UniProt P34972).
**Result** > 10 µM

**Query** Send back Cannabinoid receptor 2 (Homo sapiens, UniProt P34972) EC50 of CS(=O)(=O)N1CCC(Nc2cc(=O)[nH]c3ccc(C(c4ccc(Cl)cc4)c4ccc(Cl)cc4)cc23)CC1 only.
**Result** > 10 µM

**Query** Give EC50 only, for O=C(O)COc1cc(C(c2ccc(Cl)cc2)c2ccc(Cl)cc2)cc2c(NC3CCN(S(=O)(=O)C(F)(F)F)CC3)ccnc12 , using Cannabinoid receptor 2 (Homo sapiens, UniProt P34972) data.
**Result** > 10 µM

Values compiled from ChEMBL document CHEMBL4270663.
